Reference for the values: patent US20200095340A1

Please respond with reported pKd for every item in the list.
- subject.of.test: biotinylated human DLL3 protein expressed as a human IgG1 fusion protein (human) (UniProt Q9NYJ7)
- Sequence (Q9NYJ7 27-492): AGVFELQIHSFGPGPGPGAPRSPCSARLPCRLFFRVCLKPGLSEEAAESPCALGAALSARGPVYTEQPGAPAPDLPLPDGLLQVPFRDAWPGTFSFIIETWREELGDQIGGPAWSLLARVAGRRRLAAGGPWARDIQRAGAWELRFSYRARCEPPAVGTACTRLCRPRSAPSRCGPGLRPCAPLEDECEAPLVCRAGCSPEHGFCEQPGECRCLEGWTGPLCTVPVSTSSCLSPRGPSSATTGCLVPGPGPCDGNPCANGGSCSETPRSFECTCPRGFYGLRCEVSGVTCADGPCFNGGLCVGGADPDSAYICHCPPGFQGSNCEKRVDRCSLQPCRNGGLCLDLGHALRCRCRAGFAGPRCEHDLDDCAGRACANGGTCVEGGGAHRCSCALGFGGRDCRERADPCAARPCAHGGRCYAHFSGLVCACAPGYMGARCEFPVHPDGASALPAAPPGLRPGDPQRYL
- protocol: Octet, biotinylated human DLL3-IgG1 fusion on streptavidin tips, single 50 nM, conditioned medium (relative KD)
When answering, recall that pKd equals minus log10 of the concentration in mol/L, and write that number alone.

Please fill in: pKd reported for anti-DLL3 trispecific protein, DLL3 binder 1E05 (protein, part only; not given: anti-CD3 fragment and anti-albumin domain, part only) chain, part: EVQLVESGGGLVQPGGSLTLSCVASGSTSVINAMAWYRRAPGKQRELAAGISSDGSKVYAKSAKGRFTISRDNAKNSVYLQMNSLRAEDTAVYYCYYFNTVSGSSMRYWGQGTLVTVSSGGGGSGGGSGGGGSGGGSHHHHHH = 7.85

Please fill in: pKd reported for anti-DLL3 trispecific protein, DLL3 binder 4A04 (protein, part only; not given: CD3 binder and albumin binder, part only) chain, part: EVQLVESGGGLVQPGGSLTLSCAASGSRVSFLSMAWYRQAPGKKRELVAGISARGSTDYIDSVKGRFTISRDNAKNSVYLQMNSLRAEDTAVYYCYAYRWSTRYTYWGQGTLVTVSSGGGGSGGGSGGGGSGGGSHHHHHH = 7.46

Please fill in: pKd reported for anti-DLL3 trispecific protein, DLL3 binder 3E01 (protein, part only; not given: anti-CD3 fragment and anti-albumin sdAb, part only) chain, part: EVQLVESGGGLVQPGGSLTLSCAASGSSVKFLSMAWYRQAPGKKRELVAGISADGSTMYIDSVKGRFTISRDNAKNSVYLQMNSLRAEDTAVYYCYAYRWHTRYTYWGQGTLVTVSSGGGGSGGGSGGGGSGGGSHHHHHH = 7.80

Please fill in: pKd reported for anti-DLL3 trispecific protein, DLL3 binder 1F07 (protein, part only; not given: CD3 fragment and albumin sdAb, part only) chain, part: EVQLVESGGGLVQPGGSLTLSCVASGSTSSINAMGWYRRAPGKQRELVAGISSDGSKVDADSVKGRFTISRDNAKNSVYLQMNSLRAEDTAVYYCYYFRTVSGSSMRYWGQGTLVTVSSGGGGSGGGSGGGGSGGGSHHHHHH = 7.89

Please fill in: pKd reported for anti-DLL3 trispecific protein, DLL3 binder 3F03 (protein, part only; not given: CD3 fragment and albumin sdAb, part only) chain, part: EVQLVESGGGLVQPGGSLTLSCAASGSSVSFLSMAWYRQAPGKKRELVAGISADGSTDYIDSVKGRFTISRDNAKNSVYLQMNSLRAEDTAVYYCYAYRWRTRYTYWGQGTLVTVSSGGGGSGGGSGGGGSGGGSHHHHHH = 7.89

Please fill in: pKd reported for anti-DLL3 trispecific protein, DLL3 binder 3F06 (protein, part only; not given: anti-CD3 fragment and anti-albumin sdAb, part only) chain, part: EVQLVESGGGLVQPGGSLTLSCAASGSRVSFLSMAWYRQAPGKKRELVAGISADGSTSYIDSVKGRFTISRDNAKNSVYLQMNSLRAEDTAVYYCYAYRWATRYTYWGQGTLVTVSSGGGGSGGGSGGGGSGGGSHHHHHH = 8.00

Please fill in: pKd reported for anti-DLL3 trispecific protein, DLL3 binder 2D02 (protein, part only; not given: anti-CD3 fragment and anti-albumin sdAb, part only) chain, part: EVQLVESGGGLVQPGGSLTLSCVASGSTSSINALGWYRRAPGKQRELVAGISSDGSLVYADSVKGRFTISRDNAKNSVYLQMNSLRAEDTAVYYCYYFRIVSGSSMRYWGQGTLVTVSSGGGGSGGGSGGGGSGGGSHHHHHH = 7.85
